These measurements were taken from PubChem BioAssay (NCI).

Tested on: A549 NSCLC
Test: NCI tumour cell line growth inhibition, 48 h
Listing of recorded TGI by entry.
valueType: TGI

INSERT INTO results (compound, datavalue) VALUES
  ('COC(=O)C1=C(C(=O)OC)SC(=C(N=Nc2ccccc2)c2ccccc2)S1', '> 100 µM'),
  ('c1ccc(P(CCP(CCP(c2ccccc2)c2ccccc2)c2ccccc2)CCP(c2ccccc2)c2ccccc2)cc1 (configuration not stated)', '> 10 µM'),
  ('CCN(CC)c1ccc(C(=N)c2ccc(N(C)C)cc2)cc1', '11.4 µM'),
  ('Cc1ccc2c(c1)C(=O)c1c-2n(CCCBr)c(=O)c2cc([N+](=O)[O-])ccc12', '> 100 µM'),
  ('NC(=S)N/N=C1\c2ccccc2CCC1CCC1(O)CCc2ccccc2C1=O (configuration not stated)', '> 100 µM'),
  ('O=C1NC(=O)C(COCc2ccccc2)C2=C1SCCC2 (configuration not stated)', '> 100 µM'),
  ('CC12c3c4cc(Br)cc3Oc3cc(Br)cc(c31)Oc1cc(Br)cc(c12)O4', '> 100 µM'),
  ('Cc1ccc(-c2c(C#N)c(N)nc3c2CCS(=O)(=O)c2ccccc2-3)cc1', '> 100 µM'),
  ('O=C(CN(/C=C/C(=O)C(F)(F)F)c1ccccc1)c1ccc(Cl)c(Cl)c1', '29.8 µM'),
  ('Oc1ccc(/C=C/c2ccc3cccc(O)c3n2)cc1O', '27.8 µM'),
  ('CN(C(=O)c1ccncc1)c1ccccc1', '> 100 µM'),
  ('O=C(COc1cccc(/C=C2\COc3ccc(Cl)cc3C2=O)c1)c1ccc(Cl)cc1', '32.1 µM'),
  ('COc1ccc(-c2nn(-c3cccc(Cl)c3)cc2-c2cc(-c3ccccc3)nc(N)n2)cc1', '13.7 µM'),
  ('CC(C)/C(Cl)=N\OC(=O)Nc1ccc(F)cc1F', '34.6 µM'),
  ('Nc1ncnc2c1cnn2Cc1cn(COCC(O)CO)nn1 (configuration not stated)', '> 100 µM'),
  ('O=c1[nH]c(-c2ccccc2)nc2c1sc1nc3ccccc3n12', '> 100 µM'),
  ('Cn1cnc(N2CCCC2)c(C#N)c1=O', '> 100 µM'),
  ('Cc1ccc2c(C)c3ccc4ccccc4c3c[n+]2c1', '> 100 µM'),
  ('S=C(Nc1cc(Cl)c(Cl)cc1Cl)SCc1ccccc1', '> 100 µM'),
  ('C=CCC(OCCOCC)c1cc(OCCOCC)ccc1OC (configuration not stated)', '> 100 µM'),
  ('O=c1c2cn[nH]c2nc2scc(-c3ccc(Cl)cc3)n12', '> 100 µM'),
  ('CC(C)(C#N)c1cc(C(=O)Nc2cc(Nc3ncccc3-c3ncnc4nc[nH]c34)ccc2F)cc(C(F)(F)F)c1', '> 10 µM');
